All values here come from ChEMBL document CHEMBL1136452.

tested on: Enterococcus faecalis; experiment: In vitro antibacterial activity against vancomycin-susceptible E. f. 034 (Enterococcus faecalis ATCC 29212); format: functional
Entries and their MIC values follow.

Past entries and their recorded results:
CC(=O)NNC[C@H]1CN(c2ccc(OCCN3CCCCC3)cc2)C(=O)O1 :: > 32 mg/L
CN[C@H](CC(C)C)C(=O)N[C@H]1C(=O)N[C@@H](CC(N)=O)C(=O)N[C@H]2C(=O)N[C@H]3C(=O)N[C@H](C(=O)N[C@H](C(=O)O)c4cc(O)cc(O)c4-c4cc3ccc4O)[C@H](O)c3ccc(c(Cl)c3)Oc3cc2cc(c3O[C@@H]2O[C@H](CO)[C@@H](O)[C@H](O)[C@H]2O[C@H]2C[C@](C)(N)[C@H](O)[C@H](C)O2)Oc2ccc(cc2Cl)[C@H]1O :: 2 mg/L
CO/C(S)=N/NC[C@H]1CN(c2ccc(OCCN3CCOCC3)c(F)c2)C(=O)O1 :: 2 mg/L
C/C(S)=N/NC[C@H]1CN(c2ccc(OCCN3CCOCC3)c(F)c2)C(=O)O1 :: 2 mg/L
C/C(S)=N/NC[C@H]1CN(c2ccc(OCCN3CCSCC3)c(F)c2)C(=O)O1 :: 1 mg/L
CC(=O)NNC[C@H]1CN(c2ccc(OCCOCc3ccccc3)c(F)c2)C(=O)O1 :: 32 mg/L

Now for another entry.
Problem: State, in one line, measured MIC of CC(=O)NNC[C@H]1CN(c2ccc(OCCN3CCOCC3)cc2)C(=O)O1
Solution: > 32 mg/L

====

Recorded MIC by entry
test system: Enterococcus faecium; test: In vitro antibacterial activity against vancomycin-resistant Enterococcus faecium 154 (Enterococcus faecium ATCC 12202); type: functional
Supply the numeric figure in mg/L, leaving out any unit text.

These solved cases illustrate the format of a correct answer.
C/C(S)=N/NC[C@H]1CN(c2ccc(OCCN3CCSCC3)c(F)c2)C(=O)O1 :: 2
CC(=O)NC[C@H]1CN(c2ccc(N3CCOCC3)c(F)c2)C(=O)O1 :: 2

Problem: Quote MIC reported for CC(=O)NNC[C@H]1CN(c2ccc(OCCN3CCSCC3)c(F)c2)C(=O)O1 please.
Solution: 4

Problem: For C/C(S)=N/NC[C@H]1CN(c2ccc(OCCN3CCCCC3)c(F)c2)C(=O)O1 , write its MIC.
Solution: 4

Problem: Indicate the recorded MIC value for this compound: CC(=O)NNC[C@H]1CN(c2ccc(OCCN3CCCCC3)c(F)c2)C(=O)O1
Solution: 64

Problem: Supply measured MIC of CO/C(S)=N/NC[C@H]1CN(c2ccc(OCCN3CCOCC3)c(F)c2)C(=O)O1 in your reply.
Solution: 2

Problem: Report measured MIC; entry is CO/C(S)=N/NC[C@H]1CN(c2ccc(OCCN3CCSCC3)c(F)c2)C(=O)O1
Solution: 2
